target: Nuclear factor NF-kappa-B complex (Homo sapiens) (UniProt Q00653+P19838+Q04206); assay: Inhibition of NF-kappaB in human HepG2 cells assessed as inhibition of TNF-alpha-induced luciferase reporter gene expression at 10 uM preincubated for 1 hr followed by TNF-alpha stimulation measured after 4 hrs relative to control; assay type: cell-based
Sequence (P19838 whole entry, looked up): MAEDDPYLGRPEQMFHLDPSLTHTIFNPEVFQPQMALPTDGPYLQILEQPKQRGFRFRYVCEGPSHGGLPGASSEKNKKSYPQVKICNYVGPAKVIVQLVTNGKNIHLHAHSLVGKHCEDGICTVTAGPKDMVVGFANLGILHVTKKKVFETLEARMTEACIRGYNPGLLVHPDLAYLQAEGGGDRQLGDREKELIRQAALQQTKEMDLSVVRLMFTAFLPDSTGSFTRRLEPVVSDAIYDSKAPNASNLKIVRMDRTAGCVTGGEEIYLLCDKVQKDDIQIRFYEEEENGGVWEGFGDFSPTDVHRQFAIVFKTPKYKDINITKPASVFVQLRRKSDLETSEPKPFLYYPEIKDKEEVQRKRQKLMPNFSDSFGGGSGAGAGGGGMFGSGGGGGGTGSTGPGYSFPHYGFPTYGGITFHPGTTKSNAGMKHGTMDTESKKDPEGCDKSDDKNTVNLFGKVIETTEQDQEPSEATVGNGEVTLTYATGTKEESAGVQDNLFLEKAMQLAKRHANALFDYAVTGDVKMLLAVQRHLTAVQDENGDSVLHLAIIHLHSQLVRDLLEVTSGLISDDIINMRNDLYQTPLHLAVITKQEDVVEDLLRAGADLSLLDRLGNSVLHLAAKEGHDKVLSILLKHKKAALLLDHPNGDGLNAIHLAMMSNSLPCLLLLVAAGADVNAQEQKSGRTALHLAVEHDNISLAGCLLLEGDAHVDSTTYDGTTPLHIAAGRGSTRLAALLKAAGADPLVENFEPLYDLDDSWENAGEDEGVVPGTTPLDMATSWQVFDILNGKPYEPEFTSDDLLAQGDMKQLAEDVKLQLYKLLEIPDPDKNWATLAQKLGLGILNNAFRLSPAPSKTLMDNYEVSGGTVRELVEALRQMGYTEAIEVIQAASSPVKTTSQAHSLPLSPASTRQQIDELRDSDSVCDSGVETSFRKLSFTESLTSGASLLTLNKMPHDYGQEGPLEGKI
Sequence (Q00653 whole entry, looked up): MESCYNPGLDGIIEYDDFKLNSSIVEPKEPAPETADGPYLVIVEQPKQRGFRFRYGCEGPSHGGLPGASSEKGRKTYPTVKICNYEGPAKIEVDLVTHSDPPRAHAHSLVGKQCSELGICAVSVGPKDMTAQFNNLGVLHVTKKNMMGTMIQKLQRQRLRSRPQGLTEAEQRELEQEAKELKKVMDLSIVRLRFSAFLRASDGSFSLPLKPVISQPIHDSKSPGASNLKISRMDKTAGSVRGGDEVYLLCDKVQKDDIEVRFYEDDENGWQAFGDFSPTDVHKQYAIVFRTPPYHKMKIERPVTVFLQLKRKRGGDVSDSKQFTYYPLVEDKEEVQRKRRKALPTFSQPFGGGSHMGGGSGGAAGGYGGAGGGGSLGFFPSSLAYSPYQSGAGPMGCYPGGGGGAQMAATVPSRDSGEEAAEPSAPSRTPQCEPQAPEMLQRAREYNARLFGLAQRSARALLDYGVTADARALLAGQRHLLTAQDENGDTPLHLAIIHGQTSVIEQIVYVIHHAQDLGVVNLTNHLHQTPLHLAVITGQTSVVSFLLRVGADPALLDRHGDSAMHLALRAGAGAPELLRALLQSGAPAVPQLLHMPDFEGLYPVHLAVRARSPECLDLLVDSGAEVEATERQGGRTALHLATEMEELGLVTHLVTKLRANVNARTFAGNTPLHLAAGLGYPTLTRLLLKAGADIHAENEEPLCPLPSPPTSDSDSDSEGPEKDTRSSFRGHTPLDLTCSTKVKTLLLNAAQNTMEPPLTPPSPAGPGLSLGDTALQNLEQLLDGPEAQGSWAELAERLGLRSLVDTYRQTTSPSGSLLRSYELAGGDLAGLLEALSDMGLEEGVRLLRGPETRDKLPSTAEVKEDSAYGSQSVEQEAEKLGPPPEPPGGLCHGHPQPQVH
Sequence (Q04206 whole entry, looked up): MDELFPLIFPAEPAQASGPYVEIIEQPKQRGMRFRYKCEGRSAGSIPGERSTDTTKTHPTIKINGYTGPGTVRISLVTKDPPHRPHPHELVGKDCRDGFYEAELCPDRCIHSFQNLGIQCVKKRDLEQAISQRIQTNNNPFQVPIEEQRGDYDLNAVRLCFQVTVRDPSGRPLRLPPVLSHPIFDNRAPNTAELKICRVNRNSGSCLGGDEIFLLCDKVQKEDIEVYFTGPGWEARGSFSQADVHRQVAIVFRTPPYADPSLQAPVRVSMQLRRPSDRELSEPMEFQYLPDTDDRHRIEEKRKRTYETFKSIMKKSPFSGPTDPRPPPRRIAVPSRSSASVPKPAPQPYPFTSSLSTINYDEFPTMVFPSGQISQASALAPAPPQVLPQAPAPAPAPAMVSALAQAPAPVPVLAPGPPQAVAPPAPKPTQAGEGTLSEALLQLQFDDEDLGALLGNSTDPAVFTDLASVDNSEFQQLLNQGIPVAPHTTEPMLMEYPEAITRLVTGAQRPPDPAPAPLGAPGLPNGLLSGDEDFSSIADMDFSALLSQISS
Active and inactive are the calls of the source. No cut-off for these calls is given here.
reported.metric: inhibition

C=C1[C@@H]([C@@]2(C)C=CC(=O)OC(C)(C)[C@@H]2CC(=O)OC)[C@@H](OC(C)=O)[C@H](OC(=O)C(C)CC)[C@@]2(C)[C@H](C3=CC(=O)NC3)C[C@H]3O[C@]132 (stereo not given in full) : 64%
C=C1[C@@H]([C@@]2(C)C=CC(=O)OC(C)(C)[C@@H]2CC(=O)OC)[C@@H](OC(C)=O)[C@H](OC(=O)c2ccccc2)[C@@]2(C)[C@H](C3=CCNC3=O)C[C@H]3O[C@]132 (relative stereo) : inactive
C=C1[C@@H]([C@@]2(C)C=CC(=O)OC(C)(C)[C@@H]2CC(=O)OC)[C@@H](OC(C)=O)[C@H](OC(=O)c2ccccc2)[C@@]2(C)[C@H](C3=CCN(C)C3=O)C[C@H]3O[C@]132 : inactive
C=C1[C@@H]([C@@]2(C)C=CC(=O)OC(C)(C)[C@@H]2CC(=O)OC)[C@@H](OC(C)=O)[C@H](OC(=O)c2ccccc2)[C@@]2(C)[C@H](C3=CC(=O)NC3)C[C@H]3O[C@]132 (relative stereo) : inactive

input: // query inhibition value for entry C=C1[C@@H]([C@@]2(C)C=CC(=O)OC(C)(C)[C@@H]2CC(=O)OC)[C@@H](OC(C)=O)[C@H](OC(=O)C(C)CC)[C@@]2(C)[C@H](C3=CCNC3=O)C[C@H]3O[C@]132 (stereo not given in full)
output: inactive
